Data origin: ChEMBL document CHEMBL1125793

- measured_on: Angiotensin II receptor (Rattus norvegicus, UniProt P29089+P25095+P35351)
- experiment_description: Binding affinity against Angiotensin II receptor, from rat adrenal gland
- Assay type: tissue-based
measured_quantity: IC50 (nM)

Some entries whose results are on file:
>>> experimental_result("COc1ccc(Cn2cnc3c2C[C@@H](C(=O)O)N(C(=O)C(c2ccc(C)cc2)c2ccc(C)cc2)C3)cc1C")
510
>>> experimental_result("Cc1ccc(Cn2cnc3c2C[C@@H](C(=O)O)N(C(=O)C(c2ccccc2)c2ccccc2)C3)cc1C")
300
>>> experimental_result("CCc1cc(Cn2cnc3c2C[C@@H](C(=O)O)N(C(=O)C(c2ccccc2)c2ccccc2)C3)ccc1OC")
50
>>> experimental_result("CCN(CC)c1ccc(Cn2cnc3c2C[C@@H](C(=O)O)N(C(=O)C(c2ccccc2)c2ccccc2)C3)cc1")
290
>>> experimental_result("O=C(Cc1ccccc1)N1Cc2ncn(Cc3ccccc3)c2CC1CO (stereo not given)")
5200
>>> experimental_result("O=C(O)C1Cc2c(ncn2Cc2ccccc2)CN1C(=O)Cc1ccccc1 (stereo in doubt; 14a)")
740
>>> experimental_result("COC(=O)C1Cc2c(ncn2Cc2ccc(N(C)C)c(C)c2)CN1C(=O)C(c1ccccc1)c1ccccc1 (stereo not given)")
350

1 = Cc1cc(Cn2cnc3c2CC(CO)N(C(=O)C(c2ccccc2)c2ccccc2)C3)ccc1[N+](=O)[O-] (stereo not given)
2 = COc1ccc(Cn2cnc3c2C[C@@H](C(=O)O)N(C(=O)C(C)c2ccccc2)C3)cc1C (stereo not given in full)
3 = COc1ccc(Cn2cnc3c2C[C@@H](C(=O)O)N(C(=O)C(c2ccccc2)c2ccccc2)C3)cc1OC
input: In this exercise, place the 3 compounds in ascending sequence of their recorded IC50. Answer format: the labels, ordered as requested.
output: 3, 2, 1

* * *

- measured_on: Angiotensin II receptor (Rattus norvegicus, UniProt P29089+P25095+P35351)
- experiment_description: Binding affinity against Angiotensin II receptor, from rat adrenal gland
- Type: tissue-based
measured_quantity: IC50 (µM)

>>> experimental_result("O=C(O)[C@H]1Cc2c(ncn2Cc2ccccc2)CN1C(=O)C(c1ccccc1)c1ccccc1")
1.2
>>> experimental_result("Cc1cc(Cn2cnc3c2C[C@@H](C(=O)O)N(C(=O)C(c2ccccc2)c2ccccc2)C3)ccc1N(C)C")
0.034
>>> experimental_result("O=C(O)[C@@H]1Cc2c(ncn2Cc2cccc(Br)c2)CN1C(=O)C(c1ccccc1)c1ccccc1")
0.65
>>> experimental_result("O=C(O)[C@@H]1Cc2c(ncn2Cc2cccnc2)CN1C(=O)C(c1ccccc1)c1ccccc1")
0.12
>>> experimental_result("COc1ccc(Cn2cnc3c2C[C@@H](C(=O)O)N(C(=O)N(C)c2ccccc2)C3)cc1C")
0.14
>>> experimental_result("COc1ccc(Cn2cnc3c2C[C@@H](C(=O)O)N(C(=O)C(c2ccc([N+](=O)[O-])cc2)c2ccc([N+](=O)[O-])cc2)C3)cc1C")
13
>>> experimental_result("O=C(O)C1Cc2c(ncn2Cc2ccccc2)CN1C(=O)Oc1ccccc1 (stereo not drawn)")
4.6
>>> experimental_result("COc1ccc(Cn2cnc3c2CC(CO)N(C(=O)N(C)c2ccccc2)C3)cc1C (stereo not drawn)")
0.52
>>> experimental_result("O=C(O)C1Cc2c(ncn2Cc2ccccc2)CN1C(=O)c1cccc2ccccc12 (stereo not drawn)")
9.8
>>> experimental_result("O=C(O)C1Cc2c(ncn2Cc2ccccc2)CN1C(=O)Cc1ccccc1 (stereo in doubt; 14)")
1.4

A = COc1ccc(Cn2cnc3c2CC(CO)N(C(=O)C(c2ccccc2)c2ccccc2)C3)cc1C (stereo not drawn)
B = COc1ccc(C)cc1Cn1cnc2c1C[C@@H](C(=O)O)N(C(=O)C(c1ccccc1)c1ccccc1)C2
input: Identify the item whose IC50 is the smaller number: A or B Pick one and reply with its label.
output: A

* * *

- measured_on: Angiotensin II receptor (Rattus norvegicus, UniProt P29089+P25095+P35351)
- Sequence (P29089 whole entry): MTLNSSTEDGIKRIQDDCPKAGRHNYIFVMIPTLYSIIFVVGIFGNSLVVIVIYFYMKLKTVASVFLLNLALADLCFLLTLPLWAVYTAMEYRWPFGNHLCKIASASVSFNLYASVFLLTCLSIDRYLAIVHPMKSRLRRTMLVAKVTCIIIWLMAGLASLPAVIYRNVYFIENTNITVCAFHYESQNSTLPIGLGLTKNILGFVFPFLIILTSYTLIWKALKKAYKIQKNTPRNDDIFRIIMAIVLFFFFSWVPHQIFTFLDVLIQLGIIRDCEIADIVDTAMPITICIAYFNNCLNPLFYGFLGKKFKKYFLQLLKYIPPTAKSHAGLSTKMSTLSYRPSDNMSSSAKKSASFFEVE
- Sequence (P25095 whole entry): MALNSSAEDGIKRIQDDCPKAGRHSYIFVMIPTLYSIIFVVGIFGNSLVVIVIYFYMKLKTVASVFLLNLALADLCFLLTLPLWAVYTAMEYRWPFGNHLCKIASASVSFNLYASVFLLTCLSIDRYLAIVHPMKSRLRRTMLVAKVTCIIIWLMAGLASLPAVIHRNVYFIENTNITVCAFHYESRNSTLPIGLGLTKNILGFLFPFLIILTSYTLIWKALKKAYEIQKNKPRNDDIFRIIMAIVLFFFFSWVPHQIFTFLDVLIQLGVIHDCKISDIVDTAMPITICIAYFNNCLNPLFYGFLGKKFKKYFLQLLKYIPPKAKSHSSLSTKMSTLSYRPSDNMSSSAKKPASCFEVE
- Sequence (P35351 whole entry): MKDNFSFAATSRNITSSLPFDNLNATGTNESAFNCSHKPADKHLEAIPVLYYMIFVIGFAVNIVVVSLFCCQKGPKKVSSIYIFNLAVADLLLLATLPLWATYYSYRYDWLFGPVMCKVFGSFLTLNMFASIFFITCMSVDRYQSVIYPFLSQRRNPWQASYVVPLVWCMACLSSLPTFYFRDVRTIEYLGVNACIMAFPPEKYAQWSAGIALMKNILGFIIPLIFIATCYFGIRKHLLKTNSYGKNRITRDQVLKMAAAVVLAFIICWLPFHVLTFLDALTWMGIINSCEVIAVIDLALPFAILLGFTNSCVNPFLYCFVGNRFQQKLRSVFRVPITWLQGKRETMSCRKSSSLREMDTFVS
- experiment_description: Binding affinity against Angiotensin II receptor, from rat adrenal gland
- Format: tissue-based
measured_quantity: IC50 (nM)

Below, 5 molecules whose answers are already recorded.
>>> experimental_result("O=C(O)[C@@H]1Cc2c(ncn2Cc2cccc(Cl)c2)CN1C(=O)C(c1ccccc1)c1ccccc1")
1200
>>> experimental_result("O=C(O)C1Cc2c(ncn2Cc2ccccc2)CN1C(=O)CC(c1ccccc1)c1ccccc1 (stereo not drawn)")
1200
>>> experimental_result("COc1ccc(Cn2cnc3c2C[C@@H](C(=O)O)N(C(=O)CC24CC5CC(CC(C5)C2)C4)C3)cc1C")
28000
>>> experimental_result("COC(=O)C1Cc2c(ncn2Cc2ccccc2)CN1C(=O)C(c1ccccc1)c1ccccc1 (stereo not drawn)")
8800
>>> experimental_result("CC(c1ccccc1)n1cnc2c1C[C@@H](C(=O)O)N(C(=O)C(c1ccccc1)c1ccccc1)C2 (stereo partly drawn)")
1100

1 = O=C(O)[C@@H]1Cc2c(ncn2Cc2ccc([N+](=O)[O-])cc2)CN1C(=O)C(c1ccccc1)c1ccccc1
2 = O=C(O)[C@@H]1Cc2c(ncn2Cc2ccc(C(F)(F)F)cc2)CN1C(=O)C(c1ccccc1)c1ccccc1
input: Of 1 versus 2 , which is the one with smaller reported IC50? Please indicate the selected item by its label.
output: 2

1 = O.O=C(O)[C@@H]1Cc2c(ncn2CC2CCCCC2)CN1C(=O)C(c1ccccc1)c1ccccc1
2 = COc1ccc(Cn2cnc3c2C[C@@H](C(=O)O)N(C(=O)C(c2ccccc2)C2CCCC2)C3)cc1C (stereo partly drawn)
3 = Nc1ccc(C(C(=O)N2Cc3ncn(Cc4ccccc4)c3CC2C(=O)O)c2ccc(N)cc2)cc1 (stereo not drawn)
input: With regard to IC50, arrange the entries in ascending order, please. List each label, following the requested order.
output: 2, 1, 3
(2: 67 nM, 1: 340 nM, 3: 8400 nM)

* * *

- measured_on: Angiotensin II receptor (Rattus norvegicus, UniProt P29089+P25095+P35351)
- experiment_description: Binding affinity against Angiotensin II receptor, from rat adrenal gland
- Type: tissue-based
measured_quantity: IC50 (µM)

A selection of reference data follows.
>>> experimental_result("O=C(O)C1Cc2c(ncn2Cc2ccccc2)CN1C(=O)COc1ccccc1 (stereo unspecified)")
4
>>> experimental_result("O=C(O)C1Cc2c(ncn2Cc2ccccc2)CN1C(=O)C(c1ccc([N+](=O)[O-])cc1)c1ccc([N+](=O)[O-])cc1 (stereo unspecified)")
13
>>> experimental_result("COc1ccc(Cn2cnc3c2C[C@@H](C(=O)O)N(C(=O)C(c2ccc(F)cc2)c2ccc(F)cc2)C3)cc1C")
2.3

I = CN(Cc1ccccc1)C(=O)N1Cc2ncn(Cc3ccccc3)c2CC1C(=O)O (stereo unspecified)
II = O=C(O)C1Cc2c(ncn2Cc2ccccc2)CN1C(=O)C(c1ccc(F)cc1)c1ccc(F)cc1 (stereo unspecified)
III = O=C(O)C1Cc2c(ncn2Cc2ccccc2)CN1C(=O)NCc1ccccc1 (stereo unspecified)
input: # desc sort on IC50 across 3 molecules Returns: the labels listed in the requested order.
output: III, I, II
